- TESTED TARGET: Rac GTPase-activating protein 1 (Homo sapiens)
- ASSAY TEXT: blockers of MgcRacGAP-driven Rac1 GTP hydrolysis – biochemical, ADP Hunter fluorescence, primary and confirmatory, confirmation (AID 624330);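 also: fluorescence reports GDP produced by GAP-driven GTP hydrolysis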
- CONDITION NOTES: MgcRacGAP-stimulated Rac1 GTP hydrolysis, at 30 µM, active compounds read high, GST-tagged Rac1 F28L mutant substrate
Among all 340,000 compounds or so, about 2,100 (0.62%) were called active. The list is a sample of the results. Measured potencies and affinities stand elsewhere.
What inhibition was measured for each of the following?
One number for each entry, in %.

The examples below pair each entry with its known result.
Brc1ccc(OCCOCCN2CCOCC2)cc1 :: 4.13
COc1ccc(/C=N\N=C2/SC(CC(=O)O)C(=O)N2c2ccc(O)cc2)cc1 (stereo unspecified) :: 3.73
N#CC1(Nc2ccc(Br)cc2)CCCC1 :: 2.57
Cc1ccc(C2(C)NC(=O)N(CC(=O)N(c3ccccc3)C3CCS(=O)(=O)C3)C2=O)cc1 (stereo unspecified) :: -6.22

Okay, here is my list. What is inhibition for each of these?
1. CC(C)(C)OC(=O)n1cc(/C=N/NC(=O)c2ccco2)c2ccccc21
2. O=C1CS/C(=N/N=C/c2ccccc2)N1c1ccc(O)cc1
3. Nc1nc2ccc([N+](=O)[O-])cc2[nH]1
4. COc1ccc(/C=N/N=C2\SCC(=O)N2c2c(C)n(C)n(-c3ccccc3)c2=O)cc1OC

[out]
1: 6.56; 2: 8.23; 3: 0.04; 4: 5.82

Okay, here is my list. What is inhibition for each of these?
1. Brc1cccc(OCCN2CCCCC2)c1
2. COc1ccc(/C=N\N=C2/SC(CC(=O)O)C(=O)N2c2ccc(O)cc2)cc1OC (stereo unspecified)

[out]
1. 17.4
2. 2.46

inhibition measured on "Brc1ccc(OCCN2CCOCC2)cc1" = 28.6

---

- TESTED TARGET: Rac GTPase-activating protein 1 (Homo sapiens) (UniProt Q9H0H5)
- Sequence (Q9H0H5 whole entry, looked up): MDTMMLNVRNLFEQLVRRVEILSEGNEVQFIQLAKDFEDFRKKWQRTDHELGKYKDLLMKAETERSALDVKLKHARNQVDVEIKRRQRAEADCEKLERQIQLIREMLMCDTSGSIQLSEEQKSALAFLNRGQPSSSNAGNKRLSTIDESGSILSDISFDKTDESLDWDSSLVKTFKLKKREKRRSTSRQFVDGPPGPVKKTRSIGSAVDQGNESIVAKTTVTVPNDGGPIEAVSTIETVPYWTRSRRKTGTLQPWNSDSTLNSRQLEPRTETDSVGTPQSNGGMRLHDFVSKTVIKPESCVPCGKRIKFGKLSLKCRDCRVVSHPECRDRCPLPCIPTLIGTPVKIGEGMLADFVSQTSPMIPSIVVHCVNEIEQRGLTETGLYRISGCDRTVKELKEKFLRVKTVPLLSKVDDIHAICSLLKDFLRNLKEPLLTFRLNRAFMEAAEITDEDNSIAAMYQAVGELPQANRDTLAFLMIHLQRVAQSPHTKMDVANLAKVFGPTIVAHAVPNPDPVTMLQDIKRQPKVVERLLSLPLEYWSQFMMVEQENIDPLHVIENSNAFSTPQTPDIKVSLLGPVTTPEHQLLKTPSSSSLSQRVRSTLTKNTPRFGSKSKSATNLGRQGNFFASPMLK
- ASSAY TEXT: blockers of MgcRacGAP-driven Rac1 GTP hydrolysis – biochemical, ADP Hunter fluorescence, primary and confirmatory, confirmation (AID 624330);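 also: fluorescence reports GDP produced by GAP-driven GTP hydrolysis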
- CONDITION NOTES: MgcRacGAP-stimulated Rac1 GTP hydrolysis, at 30 µM, active compounds read high, GST-tagged Rac1 F28L mutant substrate
Screen size: about 340,000 compounds; about 2,100 (0.62%) were called active. The list is a sample of the results. Potency and affinity values are given separately.
PROPERTY: inhibition (%)
One number for each entry, in %.

The examples below pair each entry with its known result.
CC(=O)NCCOc1cccc2ccccc12 :: -4.94
Cc1ccc2c(nc3s/c(=C\c4ccc(-c5ccccc5C(=O)O)o4)c(=O)n32)c1C :: 19.4
CCC1(CC)C(=O)N(c2ccccc2)C(=N)N(c2ccccc2)C1=O :: -9.62
O=c1/c(=C/c2ccccn2)sc2nc3ccccc3n12 :: 6.92
Cc1ccc(OCCCCNC(C)c2ccccc2)c(C)c1 (stereo unspecified) :: 28.7

Now look at this entry.
inhibition measured on "Cc1ccc(C(C)C)c(OCCCN(C)Cc2ccccc2)c1" = 13

---

- TESTED TARGET: Rac GTPase-activating protein 1 (Homo sapiens)
- ASSAY TEXT: blockers of MgcRacGAP-driven Rac1 GTP hydrolysis – biochemical, ADP Hunter fluorescence, primary and confirmatory, confirmation (AID 624330);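 also: fluorescence reports GDP produced by GAP-driven GTP hydrolysis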
- CONDITION NOTES: MgcRacGAP-stimulated Rac1 GTP hydrolysis, at 30 µM, active compounds read high, GST-tagged Rac1 F28L mutant substrate
About 2,100 (0.62%) of roughly 340,000 compounds were called active. These entries were drawn from the full list. Measured potencies and affinities stand elsewhere.
What inhibition was measured for each of the following?
Give bare numbers, in %.

CCOC(=O)N1CCN(C(=O)COC(=O)c2cc(C)ccc2C)CC1 :: -2.55
Cc1cc(C(=O)NNC(=O)/C=C/c2ccc(F)cc2)c(C)o1 :: 0.14

Okay, here is my list. What is inhibition for each of these?
1. COc1ccc(/C=C/c2ccc3cccc(O)c3n2)cc1Br
2. O=C1/C(=C\c2ccco2)SC(=S)N1c1ccccc1
3. O=C1/C(=C\c2ccco2)CCC/C1=C\c1ccco1
4. Cc1cc(O)cc(O)c1C(=O)Cc1cscn1
5. Cn1cc(Br)c(-c2cccc(N3C(=O)CC(C)(C)CC3=O)c2)n1
6. CC(=O)c1ccc(Nc2ccc(-c3ccccc3C)nn2)cc1
7. Cc1ccc(S(=O)(=O)N2CCC(C(=O)NC3CCCCC3C)CC2)cc1 (stereo unspecified)

[out]
1. 5.56
2. 23.6
3. 38.4
4. 7.26
5. 9.36
6. 2.32
7. 17.3

Okay, here is my list. What is inhibition for each of these?
1. CN(C)CCCN(Cc1ccccc1)C(=S)Nc1cccc(C(F)(F)F)c1
2. CC(C)NC(=O)Nc1ccc2c(c1)C(=O)N([C@H](C)CO)C[C@H](C)[C@@H](CN(C)C(=O)Nc1ccc(C(F)(F)F)cc1)O2

[out]
[3.49, 12.5]

Okay, here is my list. What is inhibition for each of these?
1. O=S1c2ccccc2Oc2ccccc21
2. COc1ccc(OCCOCCOc2ccc(C)cc2[N+](=O)[O-])cc1
3. O=C1CNC(=O)/C(=C/c2cccs2)N1
4. O=C(O)c1cccc(-n2c(/C=C/c3ccccc3)nc3ccccc3c2=O)c1
5. O=C(NCc1ccco1)c1ccc(COc2ccc(Cl)cc2)cc1
6. Cc1ccc(S(=O)(=O)N(C)c2ccccc2C(=O)N2CCOCC2)cc1
7. COc1ccc(/C=N/Nc2nc3ccccc3c(=O)n2-c2ccccc2)cc1OC

[out]
1. -3.3
2. 4.97
3. 0.05
4. -7.35
5. -1.23
6. 6.35
7. 8.28

Okay, here is my list. What is inhibition for each of these?
1. O=C(O)c1ccc(-n2c(/C=C/c3ccccc3)nc3ccccc3c2=O)cc1
2. COc1cccc(/C=C/C(=O)OCC(=O)Nc2ccc3c(c2)OCCO3)c1

[out]
1: -4; 2: 14.2

---

- TESTED TARGET: Rac GTPase-activating protein 1 (Homo sapiens)
- ASSAY TEXT: blockers of MgcRacGAP-driven Rac1 GTP hydrolysis – biochemical, ADP Hunter fluorescence, primary and confirmatory, confirmation (AID 624330);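 also: fluorescence reports GDP produced by GAP-driven GTP hydrolysis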
- CONDITION NOTES: MgcRacGAP-stimulated Rac1 GTP hydrolysis, at 30 µM, active compounds read high, GST-tagged Rac1 F28L mutant substrate
About 2,100 (0.62%) of roughly 340,000 compounds were called active. Not all results are given here. Measured potencies and affinities stand elsewhere.
What inhibition was measured for each of the following?

The examples below pair each entry with its known result.
CCOC(=O)CN1C(=O)S/C(=C/c2ccc(C)o2)C1=O :: 13.6% (inactive)
CCC(CO)N=C1CC(C)(C)CC(=O)/C1=C(/O)CCCN1C(=O)c2ccccc2C1=O (stereo unspecified) :: 0.34% (inactive)

Okay, here is my list. What is inhibition for each of these?
1. CC(C)NC(=S)N/N=C/c1ccc(N2CCOCC2)cc1
2. O=C1NC(=S)N/C1=C\c1ccccc1OCc1ccc(C(=O)O)cc1
3. O=C(NNS(=O)(=O)c1ccc(F)cc1)c1ccc(O)cc1
4. O=C(CSc1nnc(-c2ccco2)n1Cc1ccccc1)c1ccccc1
5. O=C(Cc1cccs1)Nc1nncs1
6. C[C@@H]1CN([C@H](C)CO)S(=O)(=O)c2ccc(C#Cc3ccccc3)cc2O[C@@H]1CN(C)C(=O)CN(C)C
7. C/C(CC(=O)Nc1cccc2c1CCCC2)=N\NC(=O)c1ccccc1N
8. COc1ccccc1NC(=O)Cn1c(C)nc2c(sc(=S)n2Cc2ccco2)c1=O

[out]
0.94% (inactive)
7.81% (inactive)
6.98% (inactive)
13.1% (inactive)
0.97% (inactive)
10.8% (inactive)
5.83% (inactive)
8.75% (inactive)

Okay, here is my list. What is inhibition for each of these?
1. Cc1nnc(C)n1/N=C/C=C/c1ccccc1
2. O=C(CN1CCN(c2ccc(F)cc2)CC1)NCC1CCCO1 (stereo unspecified)
3. C=CCn1c(SCc2cc(=O)n3cc(C)ccc3n2)nnc1-c1cccc(C)c1

[out]
1.05% (inactive)
12.3% (inactive)
8.24% (inactive)

Okay, here is my list. What is inhibition for each of these?
1. O=C(CSCSCC(=O)NCC1CCCO1)NCC1CCCO1 (stereo unspecified)
2. NS(=O)(=O)c1ccc(N=Cc2c(O)n(-c3nccs3)c(=O)c3ccccc23)cc1
3. CCOCCCNC(=O)C(=O)NCCCOCC
4. O=C(Nc1ccon1)Nc1ccc(Cl)cc1Cl
5. CCOC(=O)c1c(OCC)[nH]c2ccc(O)cc12
6. CC(C)(C)C(=O)Nc1c2c(nn1-c1ccc(F)cc1)CSC2
7. CCOC(=O)c1c(C)[nH]c2c1cc(O)c1ccccc12

[out]
1. 9.35% (inactive)
2. 1.11% (inactive)
3. 6.87% (inactive)
4. 2.26% (inactive)
5. 7.01% (inactive)
6. 11% (inactive)
7. 13.6% (inactive)
